# Assay remarks: Cell Proliferation Assay against the TMD8 Cell Line (Caspase readout at 16 hrs) (AID 651712)
# Test conditions: TMD8 lymphoma cells, caspase activation luminescence; series mostly up to 46.1 µM
Records with an inconclusive call do not appear. Activity calls are given as the source filed them. Calls come from the whole dose curve; as a rule, active = well fitted activation curve with a large enough effect; inconclusive = small, poorly fitted or top-dose-only effect; inactive = flat fitted curve, though single readings scatter.
Hi! Could you answer with just one of these? y (active), n (inactive)

Here's what some known entries look like.
Nc1ccccc1NC(=O)c1ccc(CNc2nccc(-c3cccnc3)n2)cc1; y
C1Cc2[nH]nc(-c3nn[nH]n3)c2C1; n
Cn1cc(-c2[nH]c3cc(NC(=O)[C@H](N)C4CCCCC4)cc4c3c2C=NNC4=O)cn1; y

Then there is this compound:
input: Which outcome was assigned to CC[C@H](CO)Nc1nc(NCc2ccccc2)c2ncn(C(C)C)c2n1 in this test?
output: y
